Test system: giant foxtail (Setaria faberii)
assay: Test A postemergence, visual injury rating
Type: in vivo
assay conditions: 125 g ai/ha, 0 is no effect, 100 is complete control
Parameter: Foxtail, Giant plant response rating (0 to 100 scale). Scope: all listed entries.
Keep the answer to the number alone.

Worked examples follow.
O=C(OC(CCl)CCl)c1c(Br)cccc1Oc1ncc(Cl)cn1 | 0
N#Cc1cccc(Oc2ncc(Cl)cn2)c1CCCC(F)(F)F | 70
CCCCC(=O)c1c(Br)cccc1Oc1ncc(Cl)cn1 | 80
CCCC(=O)c1c(C#N)cccc1Oc1ncc(Cl)cn1 | 0
N#Cc1cccc(Oc2ncc(Cl)cn2)c1COCCC(F)(F)F | 90

input: Given the compound `FC(F)(F)CCCOCc1c(Br)cccc1Oc1ncc(Cl)cn1` , what is its reported Foxtail, Giant plant response rating (0 to 100 scale)?
output: 70

input: Given the compound `O=C(OCC1CCC1)c1c(Br)cccc1Oc1ncc(Cl)cn1` , what is its reported Foxtail, Giant plant response rating (0 to 100 scale)?
output: 30

input: Given the compound `O=C(OC1CCC1)c1c(Br)cccc1Oc1ncc(Cl)cn1` , what is its reported Foxtail, Giant plant response rating (0 to 100 scale)?
output: 50

input: Given the compound `O=C(CCCC(F)(F)F)c1c(Br)cccc1Oc1ncc(Cl)cn1` , what is its reported Foxtail, Giant plant response rating (0 to 100 scale)?
output: 90

input: Given the compound `FC(F)(F)C(F)(F)COCc1c(Br)cccc1Oc1ncc(Cl)cn1` , what is its reported Foxtail, Giant plant response rating (0 to 100 scale)?
output: 30

---

System: kochia (Kochia scoparia)
assay: Test A postemergence, visual injury rating
Assay type: in vivo
assay conditions: 31 g ai/ha, 0 to 100 scale, 0 is no effect, 100 is complete control, approximately 10 days
measured property: Kochia plant response rating

CCCC(=O)c1c(C#N)cccc1Oc1ncc(Cl)cn1 | 0
FC(F)(F)CCOCc1c(Br)cccc1Oc1ncc(Cl)cn1 | 20
CC(=NOC(C)C)c1c(C#N)cccc1Oc1ncc(Cl)cn1 | 20
CC(C)(C)CCOC(=O)c1c(Br)cccc1Oc1ncc(Cl)cn1 | 0
O=C(SCCC(F)(F)F)c1c(Br)cccc1Oc1ncc(Cl)cn1 | 10

input: What Kochia plant response rating appears in the records for this compound with kochia (Kochia scoparia)? `O=C(OCC(Cl)(Cl)Cl)c1c(Br)cccc1Oc1ncc(Cl)cn1`
output: 20

---

Parameter: Plant response rating, Galium. Scope: all listed entries.
System: galium (catchweed bedstraw, Galium aparine)
assay: Test C preemergence, plant response rating
Format: in vivo
assay conditions: 16 g ai/ha, scale 0 to 100
Keep the answer to the number alone.

Worked examples follow.
O=C(OCCC(F)(F)F)c1c(Br)cccc1Oc1ncc(Br)cn1 [Compound 33] | 0
O=C(CCCC(F)(F)F)c1c(Br)cccc1Oc1ncc(Cl)cn1 [Compound 77] | 0
O=C(OCCC(F)(F)F)c1c(Br)cccc1Oc1ncc(Cl)cn1 [Compound 26] | 5
N#Cc1cccc(Oc2ncc(Cl)cn2)c1CCCCC(F)(F)F [Compound 73] | 5

Turning now to a further compound:
input: Given the compound O=C(OCCCC(F)(F)F)c1c(Br)cccc1Oc1ncc(Cl)cn1 [Compound 20] , what is its reported Plant response rating, Galium?
output: 10

---

Parameter: Barnyardgrass plant response rating. Scope: all listed entries.
Test system: barnyardgrass (Echinochloa crus-galli)
assay: Test A preemergence, visual injury rating
Assay type: in vivo
assay conditions: 125 g ai/ha, 0 to 100 scale (0 no effect, 100 complete control)
Keep the answer to the number alone.

N#Cc1cccc(Oc2ncc(Cl)cn2)c1C(=O)CCCCC(F)(F)F | 20
C#CCOC(=O)c1c(Br)cccc1Oc1ncc(Cl)cn1 | 30
C#CCCOC(=O)c1c(Br)cccc1Oc1ncc(Cl)cn1 | 90

input: Given the compound `FC(F)(F)CCOCc1c(Br)cccc1Oc1ncc(Cl)cn1` , what is its reported Barnyardgrass plant response rating?
output: 100

input: Given the compound `O=C(OCC1CCCC1)c1c(Br)cccc1Oc1ncc(Cl)cn1` , what is its reported Barnyardgrass plant response rating?
output: 10

input: Given the compound `O=C(OC1CCC1)c1c(Br)cccc1Oc1ncc(Cl)cn1` , what is its reported Barnyardgrass plant response rating?
output: 60
